Provide the reported remaining activity at 0.313 µM of each item.
Molecular target: HMGCR (TM1-8)-GFP (Cricetulus griseus, UniProt P00347)
Sequence (P00347 1-346): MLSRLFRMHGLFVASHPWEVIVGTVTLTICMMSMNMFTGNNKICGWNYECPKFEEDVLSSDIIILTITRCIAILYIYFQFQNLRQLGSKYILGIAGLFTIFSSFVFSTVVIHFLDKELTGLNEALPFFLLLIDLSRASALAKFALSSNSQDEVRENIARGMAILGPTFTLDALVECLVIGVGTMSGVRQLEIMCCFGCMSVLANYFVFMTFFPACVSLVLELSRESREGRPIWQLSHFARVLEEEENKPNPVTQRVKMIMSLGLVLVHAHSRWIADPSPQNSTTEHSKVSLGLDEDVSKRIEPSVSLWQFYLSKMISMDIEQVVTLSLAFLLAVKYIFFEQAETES
Assay: HMGCR (TM1-8)-GFP fluorescent assay (high-content imaging) in CHG cells
Details: read-out: Mean (HMGCR (TM1-8)-GFP signal relative to 0 μM = 100)
// note: answer is a bare numeric in %

For HMGCR (TM1-8)-GFP (Cricetulus griseus, UniProt P00347), provide remaining activity at 0.313 µM of CCC(O)(CC)CCCCC[C@@H](C)C1CCC2C3C(CC[C@@]21C)[C@@]1(C)CC[C@H](O)C(C)(C)C1=C[C@@H]3O (stereo partly shown) please.
76.6

// fetch HMGCR (TM1-8)-GFP (Cricetulus griseus, UniProt P00347) remaining activity at 0.313 µM for COCCC[C@@H](C)C1CCC2C3C(CC[C@@]21C)[C@@]1(C)CC[C@H](O)C(C)(C)C1=C[C@@H]3O (stereo partly shown)
100

Give recorded remaining activity at 0.313 µM with HMGCR (TM1-8)-GFP (Cricetulus griseus, UniProt P00347) for the following compound: C[C@H](CCCC(C)(C)O)C1CCC2C3C(CC[C@@]21C)[C@@]1(C)CC[C@H](O)C(C)(C)C1=C[C@@H]3O (stereo partly shown)
77.2

API: value(readout=remaining activity at 0.313 µM, system=HMGCR (TM1-8)-GFP (Cricetulus griseus, UniProt P00347)) for record CC(O)CCC[C@@H](C)C1CCC2C3C(CC[C@@]21C)[C@@]1(C)CC[C@H](O)C(C)(C)C1=C[C@@H]3O (stereo partly shown)
88.8

---

Molecular target: HMGCR (TM1-8)-GFP (Cricetulus griseus)
Experiment: HMGCR (TM1-8)-GFP fluorescent assay (high-content imaging) in CHG cells
Settings: read-out: Mean (HMGCR (TM1-8)-GFP signal relative to 0 μM = 100)
// classify: if (remaining activity at 10 µM < 20%) satisfied else not satisfied

Please check: remaining activity at 10 µM for C=CCC(O)(CC=C)CCCC[C@@H](C)C1CCC2C3C(CC[C@@]21C)[C@@]1(C)CC[C@H](O)C(C)(C)C1=C[C@@H]3O (stereo partly drawn) , strictly under 20% or not?
not satisfied

Criterion: remaining activity at 10 µM strictly below 20%. Is it met by C[C@H](CCCC(C)(C)O)C1CCC2C3C(CC[C@@]21C)[C@@]1(C)CC[C@H](O)C(C)(C)C1=C[C@@H]3O (stereo partly drawn) ?
satisfied

For C=CCC(O)CCCCC[C@@H](C)C1CCC2C3C(CC[C@@]21C)[C@@]1(C)CC[C@H](O)C(C)(C)C1=C[C@@H]3O (stereo partly drawn) , is the recorded remaining activity at 10 µM below the cut-off of 20%?
not satisfied

State whether 20% exceeds remaining activity at 10 µM recorded for COCCCC[C@@H](C)C1CCC2C3C(CC[C@@]21C)[C@@]1(C)CC[C@H](O)C(C)(C)C1=C[C@@H]3O (stereo partly drawn) .
satisfied

Is 20% strictly greater than the compound's reported remaining activity at 10 µM? compound: CCC(O)CCC[C@@H](C)C1CCC2C3C(CC[C@@]21C)[C@@]1(C)CC[C@H](O)C(C)(C)C1=C[C@@H]3O (stereo partly drawn)
satisfied
